# System: A1BG
# testDetails: Northern blot quantification of A1BG mRNA in liver of rats fed PUFA-supplemented fat free diet
# Format: in vivo
# conditionParameters: rat liver RNA; female Wistar rats, fat free diet 2 weeks, then fatty acid 5% (w/w) in diet 2 weeks; ± standard deviation of three rats; not normalized for 18S; DHA = 100, fat free = 7 ± 9
readoutName: quantification of the Northern blots, A1BG (%)
// units = %; emit number, no label

| compoundSmiles | measurementUnit | recordedMeasurement |
| --- | --- | --- |
| CCCCC/C=C\C/C=C\C/C=C\CCCCC(=O)O | % | 14 |

Problem: Can you look up the measured quantification of the Northern blots, A1BG of CC/C=C\C/C=C\C/C=C\C/C=C\C/C=C\C/C=C\CCC(=O)O for me?
Solution: 100

Problem: Can you look up the measured quantification of the Northern blots, A1BG of CC/C=C\C/C=C\C/C=C\C/C=C\C/C=C\CCCC(=O)O for me?
Solution: 32

Problem: Can you look up the measured quantification of the Northern blots, A1BG of CCCCC/C=C\C/C=C\CCCCCCCC(=O)O for me?
Solution: 52

----------
# Tested on: Spot-14
# testDetails: Northern blot quantification of Spot-14 mRNA in liver of rats fed PUFA-supplemented fat free diet
# Format: in vivo
# conditionParameters: rat liver RNA; female Wistar rats, fat free diet 2 weeks, then fatty acid 5% (w/w) in diet 2 weeks; ± standard deviation of three rats; normalized for 18S; fat free = 100
readoutName: quantification of the Northern blots, Spot-14 (%)
// units = %; emit number, no label

These solved cases illustrate the format of a correct answer.
| compoundSmiles | recordedMeasurement |
| --- | --- |
| CC/C=C\C/C=C\C/C=C\C/C=C\C/C=C\CCCC(=O)O | 19 |
| CCCCC/C=C\C/C=C\C/C=C\CCCCC(=O)O | 12 |
| CC/C=C\C/C=C\C/C=C\C/C=C\C/C=C\C/C=C\CCC(=O)O | 24 |

Problem: Can you look up the measured quantification of the Northern blots, Spot-14 of CCCCC/C=C\C/C=C\CCCCCCCC(=O)O for me?
Solution: 50

----------
# System: G6PD
# testDetails: Northern blot quantification of G6PD mRNA in liver of rats fed PUFA-supplemented fat free diet
# Type: in vivo
# conditionParameters: rat liver RNA; female Wistar rats, fat free diet 2 weeks, then fatty acid 5% (w/w) in diet 2 weeks; ± standard deviation of three rats; not normalized for 18S; fat free = 100
quantification of the Northern blots, G6PD listing for selected compounds.
// units = %; emit number, no label

These solved cases illustrate the format of a correct answer.
| compound | recordedMeasurement |
| --- | --- |
| CCCCC/C=C\C/C=C\CCCCCCCC(=O)O [LA, linoleic acid] | 42 |
| CC/C=C\C/C=C\C/C=C\C/C=C\C/C=C\CCCC(=O)O [EPA, eicosapentaenoic acid] | 15 |
| CC/C=C\C/C=C\C/C=C\C/C=C\C/C=C\C/C=C\CCC(=O)O [DHA, docosahexaenoic acid] | 19 |

Now for the compound whose quantification of the Northern blots, G6PD we want.
Problem: Hi! What's the reported quantification of the Northern blots, G6PD for CCCCC/C=C\C/C=C\C/C=C\CCCCC(=O)O [GLA, gamma-linolenic acid] on G6PD?
Solution: 8
